For each entry below, report its EC90 value.
tested on: Mycobacterium tuberculosis; experiment: Antitubercular activity against Mycobacterium tuberculosis H37Rv by microdilution alamar Blue broth assay; format: functional, organism-based

Worked cases, EC90 given:
CN1C[C@H](c2cncc(-c3ccc(F)cc3)c2)[C@]2(Cc3ccccc3C2=O)[C@]12C(=O)c1cccc3cccc2c13 | > 100 µM
CN1C[C@H](c2ccc(Br)cc2)[C@]2(Cc3ccccc3C2=O)[C@]12C(=O)c1cccc3cccc2c13 | > 100 µM
N[C@@H]1CONC1=O [CYCLOSERINE] | 28 µM
NCC[C@H](O)C(=O)N[C@@H]1C[C@H](N)[C@@H](O[C@H]2O[C@H](CN)[C@@H](O)[C@H](O)[C@H]2O)[C@H](O)[C@H]1O[C@H]1O[C@H](CO)[C@@H](O)[C@H](N)[C@H]1O [AMIKACIN] | 0.14 µM
CN1C[C@H](c2cccc3c2OCO3)[C@]2(Cc3ccccc3C2=O)[C@]12C(=O)c1cccc3cccc2c13 | > 100 µM

Look at each compound and report its EC90.
1. CN1C[C@H](c2ccc(C(=O)O)cc2)[C@]2(Cc3ccccc3C2=O)[C@]12C(=O)c1cccc3cccc2c13
2. COc1ccc(OC)c([C@H]2CN(C)[C@@]3(C(=O)c4cccc5cccc3c45)[C@@]23Cc2ccccc2C3=O)c1
3. CN1C[C@H](c2ccc(C(F)(F)F)cc2)[C@]2(Cc3ccccc3C2=O)[C@]12C(=O)c1cccc3cccc2c13
4. CN1C[C@H](c2ccc(OC(F)(F)F)cc2)[C@]2(Cc3ccccc3C2=O)[C@]12C(=O)c1cccc3cccc2c13

99.7 µM
> 100 µM
> 100 µM
> 100 µM

Look at each compound and report its EC90.
1. CN(C)c1ccc([C@H]2CN(C)[C@@]3(C(=O)c4cccc5cccc3c45)[C@@]23Cc2ccccc2C3=O)cc1
2. CN1C[C@H](c2ccc(N3CCCCC3)cc2)[C@]2(Cc3ccccc3C2=O)[C@]12C(=O)c1cccc3cccc2c13
3. CN1C[C@H](c2ccc(Cl)cc2)[C@]2(Cc3ccccc3C2=O)[C@]12C(=O)c1cccc3cccc2c13
4. NNC(=O)c1ccncc1 [ISONIAZID]
5. CO[C@H]1/C=C/O[C@@]2(C)Oc3c(C)c(O)c4c(O)c(c(/C=N/N5CCN(C)CC5)c(O)c4c3C2=O)NC(=O)/C(C)=C\C=C\[C@H](C)[C@H](O)[C@@H](C)[C@@H](O)[C@@H](C)[C@H](OC(C)=O)[C@@H]1C [RIFAMPIN]
6. CN1C[C@H](c2ccc(N3CCOCC3)cc2)[C@]2(Cc3ccccc3C2=O)[C@]12C(=O)c1cccc3cccc2c13
7. CN1C[C@H](c2ccccc2)[C@]2(Cc3ccccc3C2=O)[C@]12C(=O)c1cccc3cccc2c13

1: > 100 µM; 2: > 100 µM; 3: > 100 µM; 4: > 5 µM; 5: 0.02 µM; 6: > 100 µM; 7: > 100 µM

---

tested on: Mycobacterium tuberculosis; test: Antitubercular activity against Mycobacterium tuberculosis H37Rv by BacTiter-Gl Microbial Cell Viability assay; format: functional, organism-based
MEASUREMENT_NAME: pEC50
One number for each entry, as −log10 of the molar value.

Worked cases, pEC50 given:
NCC[C@H](O)C(=O)N[C@@H]1C[C@H](N)[C@@H](O[C@H]2O[C@H](CN)[C@@H](O)[C@H](O)[C@H]2O)[C@H](O)[C@H]1O[C@H]1O[C@H](CO)[C@@H](O)[C@H](N)[C@H]1O | 7.15
N[C@@H]1CONC1=O | 4.63
CO[C@H]1/C=C/O[C@@]2(C)Oc3c(C)c(O)c4c(O)c(c(/C=N/N5CCN(C)CC5)c(O)c4c3C2=O)NC(=O)/C(C)=C\C=C\[C@H](C)[C@H](O)[C@@H](C)[C@@H](O)[C@@H](C)[C@H](OC(C)=O)[C@@H]1C | 7.70

Look at each compound and report its pEC50.
1. CN1C[C@H](c2ccc(N3CCCCC3)cc2)[C@]2(Cc3ccccc3C2=O)[C@]12C(=O)c1cccc3cccc2c13
2. CN1C[C@H](c2ccc(Br)cc2)[C@]2(Cc3ccccc3C2=O)[C@]12C(=O)c1cccc3cccc2c13
3. CN1C[C@H](c2cccc([N+](=O)[O-])c2)[C@]2(Cc3ccccc3C2=O)[C@]12C(=O)c1cccc3cccc2c13
4. CN1C[C@H](c2cccc3c2OCO3)[C@]2(Cc3ccccc3C2=O)[C@]12C(=O)c1cccc3cccc2c13

[4.75, 5.66, 5.00, 4.94]

Look at each compound and report its pEC50.
1. CN1C[C@H](c2ccc(Cl)cc2)[C@]2(Cc3ccccc3C2=O)[C@]12C(=O)c1cccc3cccc2c13
2. COc1ccc(OC)c([C@H]2CN(C)[C@@]3(C(=O)c4cccc5cccc3c45)[C@@]23Cc2ccccc2C3=O)c1
3. CN1C[C@H](c2ccc(C(F)(F)F)cc2)[C@]2(Cc3ccccc3C2=O)[C@]12C(=O)c1cccc3cccc2c13

5.20
5.02
5.49

---

test system: Mycobacterium tuberculosis; test: Antitubercular activity against Mycobacterium tuberculosis H37Rv by microdilution alamar Blue broth assay; type: functional, organism-based
MEASUREMENT_NAME: MIC
Record the result as a number with its unit.

Worked cases, MIC given:
NCC[C@H](O)C(=O)N[C@@H]1C[C@H](N)[C@@H](O[C@H]2O[C@H](CN)[C@@H](O)[C@H](O)[C@H]2O)[C@H](O)[C@H]1O[C@H]1O[C@H](CO)[C@@H](O)[C@H](N)[C@H]1O | 0.16 µM
CCc1nc(N)nc(N)c1-c1ccc(Cl)cc1 | 100 µM
CO[C@H]1/C=C/O[C@@]2(C)Oc3c(C)c(O)c4c(O)c(c(/C=N/N5CCN(C)CC5)c(O)c4c3C2=O)NC(=O)/C(C)=C\C=C\[C@H](C)[C@H](O)[C@@H](C)[C@@H](O)[C@@H](C)[C@H](OC(C)=O)[C@@H]1C | 0.16 µM
CN1C[C@H](c2ccc(C(=O)O)cc2)[C@]2(Cc3ccccc3C2=O)[C@]12C(=O)c1cccc3cccc2c13 | 100 µM

Please find the next compound below.
Supply recorded MIC for N[C@@H]1CONC1=O here.
100 µM

---

tested on: Mycobacterium tuberculosis; test: Antitubercular activity against Mycobacterium tuberculosis H37Rv by BacTiter-Gl Microbial Cell Viability assay; format: functional, organism-based
For each entry below, report its MIC value.
One number for each entry, in µM.

Worked cases, MIC given:
CN1C[C@H](c2ccc(C(F)(F)F)cc2)[C@]2(Cc3ccccc3C2=O)[C@]12C(=O)c1cccc3cccc2c13 | 50
NCC[C@H](O)C(=O)N[C@@H]1C[C@H](N)[C@@H](O[C@H]2O[C@H](CN)[C@@H](O)[C@H](O)[C@H]2O)[C@H](O)[C@H]1O[C@H]1O[C@H](CO)[C@@H](O)[C@H](N)[C@H]1O | 0.16
CN1C[C@H](c2ccc(OC(F)(F)F)cc2)[C@]2(Cc3ccccc3C2=O)[C@]12C(=O)c1cccc3cccc2c13 | 50

Supply recorded MIC for CN1C[C@H](c2ccc(Br)cc2)[C@]2(Cc3ccccc3C2=O)[C@]12C(=O)c1cccc3cccc2c13 here.
12.5

---

test system: Mycobacterium tuberculosis; test: Antitubercular activity against Mycobacterium tuberculosis H37Rv by microdilution alamar Blue broth assay; type: functional, organism-based
For each entry below, report its EC90 value.

COc1ccc([C@H]2CN(C)[C@@]3(C(=O)c4cccc5cccc3c45)[C@@]23Cc2ccccc2C3=O)cc1 | > 100 µM
CC[C@@H](CO)NCCN[C@@H](CC)CO | > 200 µM
CN1C[C@H](c2cccc([N+](=O)[O-])c2)[C@]2(Cc3ccccc3C2=O)[C@]12C(=O)c1cccc3cccc2c13 | > 100 µM

Please find the next compound below.
Supply recorded EC90 for CCc1nc(N)nc(N)c1-c1ccc(Cl)cc1 here.
28 µM

Where do these numbers come from? They come from ChEMBL document CHEMBL2331118.
